Biological target: glucagon receptor (GCGR), primary cAMP assay (human, UniProt P47871 26-477)
Sequence (P47871 26-477): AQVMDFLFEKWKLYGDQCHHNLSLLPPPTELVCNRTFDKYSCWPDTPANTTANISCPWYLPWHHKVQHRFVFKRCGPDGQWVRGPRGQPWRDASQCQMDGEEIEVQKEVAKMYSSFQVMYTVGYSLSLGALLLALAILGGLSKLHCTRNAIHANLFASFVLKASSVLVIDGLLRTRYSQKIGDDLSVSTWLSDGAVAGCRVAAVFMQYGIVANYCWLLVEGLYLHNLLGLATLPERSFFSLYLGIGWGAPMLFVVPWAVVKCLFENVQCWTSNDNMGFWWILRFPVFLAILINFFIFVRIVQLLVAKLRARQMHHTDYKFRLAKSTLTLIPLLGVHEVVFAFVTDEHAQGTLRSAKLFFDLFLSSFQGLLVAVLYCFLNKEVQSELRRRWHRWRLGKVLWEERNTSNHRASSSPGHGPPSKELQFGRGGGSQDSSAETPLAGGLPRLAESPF
Assay: cell-based or functional assay
Starred links: 1 amine or outer side, 2 acyl side, 3 side chain; linkers in the order of their positions; H or OH if unused. Non-standard residues stand in square brackets, D forms with d. Groups on a side chain read outwards from the residue. Primed or numbered codes have the meaning given here. No end group written: not given here. *: point of attachment. γGlu = O=C(O)[C@H](CCC(=O)[*:2])N[*:1]; Palmitoyl = CCCCCCCCCCCCCCCC(=O)*; αMeF = C[C@](N)(Cc1ccccc1)C(=O)O; αMeK = C[C@](N)(CCCCN)C(=O)O; Lauroyl = CCCCCCCCCCCC(=O)*; αMeS = C[C@](N)(CO)C(=O)O; PEG2′ = not defined here; Aib = CC(C)(N)C(=O)O
measured property: Primary assay EC50 (cAMP), n1 (nM)

Ask: Would you kindly share the measured Primary assay EC50 (cAMP), n1 for H[Aib]EGS[αMeF]TSDV[αMeS]SK([PEG2′-PEG2′-γGlu-Palmitoyl])LEGEAA[αMeK]E[αMeF]IAK([PEG2′-PEG2′-γGlu-Palmitoyl])VVEGG-NH2 [SEQ ID NO: 409] ?
Result: 21.5

Ask: Same again, this time with H[Aib]EGS[αMeF]TSDV[αMeS]SYK([PEG2′-PEG2′-γGlu-Lauroyl])EGEAA[αMeK]EFIAK([PEG2′-PEG2′-γGlu-Lauroyl])VVEGG-NH2 [SEQ ID NO: 269]
Result: 22.8

Ask: Same again, this time with H[Aib]EGS[αMeF]TSDV[αMeS]SK([PEG2′-PEG2′-γGlu-Lauroyl])LEGEAA[αMeK]EFIK([PEG2′-PEG2′-γGlu-Lauroyl])WVVEGG-NH2 [SEQ ID NO: 262]
Result: 22.5

Ask: Same again, this time with H[Aib]EGTFTSDVSK([PEG2′-PEG2′-γGlu-Palmitoyl])YLEGEAAEEFIK([PEG2′-PEG2′-γGlu-Palmitoyl])FVVEGG-NH2 [SEQ ID NO: 244]
Result: 21.6

Numbers sourced from patent US20200079833A1.
